All values here come from ChEMBL document CHEMBL2384944.

Assay: Half life in rat liver microsomes at 1 uM in presence of NADPH
Conditions: liver microsomes

# Given Smiles, half-life at 1 µM
rows = [
    ("CC(C)(C)c1ccc(C(=O)Nc2ccc(C(F)(F)F)cc2)cc1", "0.2 h"),
    ("CC(C)(C)c1ccc(C(=O)Nc2ccc(C(F)(F)F)nc2)cc1", "0.417 h"),
    ("N#Cc1cc(-c2ccc(C3(C(F)(F)F)CC3)cc2)ccn1", "1.25 h"),
    ("N#Cc1ccc(NC(=O)c2ccc(C3(C(F)(F)F)CC3)cc2)cn1", "1.63 h"),
    ("N#Cc1ccc(-c2ccc(C3(C(F)(F)F)CC3)cc2)nc1", "> 6.67 h"),
]

----------
Test: Half life in rat liver microsomes at 1 uM in presence of NADPH
Settings: microsomes
Mark YES for reported half-life at 1 µM of 30 min or greater; mark NO for anything smaller.

# Compound, Qualitative Label
rows = [
    ("CC(C)(C(=O)O)c1ccc(-c2ccc(C#N)cn2)cc1", "YES"),
    ("CC1(c2ccc(-c3ccc(C#N)cn3)cc2)COC1", "YES"),
    ("CC(C)c1ccc(-c2ccc(C#N)cn2)cc1", "NO"),
    ("CC(C)(CO)c1ccc(-c2ccc(C#N)cn2)cc1", "YES"),
    ("O=C(Nc1ccc(C(F)(F)F)cc1)c1ccc(C2(C(F)(F)F)CC2)cc1", "YES"),
    ("CC(c1ccc(-c2ccc(C#N)cn2)cc1)C(F)(F)F (stereo not given)", "NO"),
    ("N#Cc1ccc(NC(=O)c2ccc(C3(C(F)(F)F)CC3)cc2)cc1", "YES"),
    ("CC(C)(C)c1ccc(-c2ccc(F)cn2)cc1", "NO"),
    ("CC(C)(C#N)c1ccc(-c2ccc(C#N)cn2)cc1", "YES"),
]

----------
Let's look at some compounds and their measured log10 half-life.
Test: Half life in Sprague-Dawley rat at <= 1 mg/kg, iv
Type: ADME, organism-based
Set-up: dose 1 mg/kg, route intravenous
Settings: in vivo
Endpoint Label: log10 half-life (log10 of the value in h)

# Given Smiles, Endpoint Label, Result Value
rows = [
    ("O=C(Nc1ccc(C(F)(F)F)nc1)c1ccc(C2(C(F)(F)F)CC2)cc1", "log10 half-life", 0.53),
    ("N#Cc1ccc(-c2ccc(C3(C(F)(F)F)CC3)cc2)nc1", "log10 half-life", 0.96),
    ("CC(C)(C)c1ccc(-c2ccc(C#N)cn2)cc1", "log10 half-life", 0.36),
    ("CC(C)(C)c1ccc(C(=O)Nc2ccc(C(F)(F)F)nc2)cc1", "log10 half-life", -0.70),
    ("CC1(c2ccc(-c3ccc(C#N)cn3)cc2)COC1", "log10 half-life", -0.40),
]

----------
Assay: Volume of distribution at steady state in Sprague-Dawley rat at <= 1 mg/kg, iv
Assay type: ADME, organism-based
Design: dose 1 mg/kg, route intravenous
Details: in vivo, read-out: Vdss

# Given Smiles, Vd
rows = [
    ("N#Cc1ccc(-c2ccc(C3(C(F)(F)F)CC3)cc2)nc1", "3.4 L/kg"),
    ("CC1(c2ccc(-c3ccc(C#N)cn3)cc2)COC1", "1.3 L/kg"),
    ("O=C(Nc1ccc(C(F)(F)F)nc1)c1ccc(C2(C(F)(F)F)CC2)cc1", "6.2 L/kg"),
    ("CC(C)(C)c1ccc(C(=O)Nc2ccc(C(F)(F)F)nc2)cc1", "5.4 L/kg"),
    ("CC(C)(C)c1ccc(-c2ccc(C#N)cn2)cc1", "2.5 L/kg"),
]

----------
Let's look at some molecules and their measured half-life at 1 µM.
Assay: Half life in human liver microsomes at 1 uM in presence of NADPH
Settings: microsomes

# Molecule, Readout Qualifier, half-life at 1 µM / h
records = [
    ("CC(C)(C)NC(=O)[C@H]1CC[C@H]2[C@@H]3CC[C@H]4NC(=O)C=C[C@]4(C)[C@H]3CC[C@]12C [FINASTERIDE]", "=", 1.05),
    ("CC(c1ccc(-c2ccc(C#N)cn2)cc1)C(F)(F)F (stereo not given)", "=", 1.1),
    ("O=C(Nc1ccc(C(F)(F)F)cc1)c1ccc(C2(C(F)(F)F)CC2)cc1", ">", 6.75),
    ("CC(C)(C#N)c1ccc(-c2ccc(C#N)cn2)cc1", "=", 2.03),
    ("CC(C)(C)c1ccc(-c2ccc(C#N)cn2)cc1", "=", 0.85),
]

----------
Assay: Half life in rat liver microsomes at 1 uM in presence of NADPH
Conditions: liver microsomes
Let's look at some molecules and their measured half-life at 1 µM.
Endpoint Label: half-life at 1 µM (min)

# Given Smiles, Endpoint Label, Readout Qualifier, Result Value
data = [
    ("Fc1ccc(-c2ccc(C3(C(F)(F)F)CC3)cc2)nc1", "half-life at 1 µM", ">", 405),
    ("N#Cc1ccc(-c2ccc(C3(C(F)(F)F)CC3)nc2)nc1", "half-life at 1 µM", "=", 129),
    ("CC(C)(C)c1ccc(C(=O)Nc2ccc(C#N)nc2)cc1", "half-life at 1 µM", "=", 24),
    ("CC(C)(C)c1ccc(C(=O)Nc2ccc(C#N)cc2)cc1", "half-life at 1 µM", "=", 12),
    ("CC(C)(C)c1ccc(-c2ccnc(C#N)c2)cc1", "half-life at 1 µM", "=", 8),
    ("O=C(Nc1ccc(C(F)(F)F)nc1)c1ccc(C2(C(F)(F)F)CC2)cc1", "half-life at 1 µM", "=", 197),
]

----------
Assay: Half life in human liver microsomes at 1 uM in presence of NADPH
Settings: microsomes
Flag rule - half-life at 1 µM less than 30 min flags criterion met; the remaining entries get criterion not met.

# Given Smiles, Qualitative Label
measured = [
    ("CC1(c2ccc(-c3ccc(C#N)cn3)cc2)COC1", "criterion not met"),
    ("N#Cc1ccc(NC(=O)c2ccc(C3(C(F)(F)F)CC3)cc2)cc1", "criterion not met"),
    ("CC(C)(CO)c1ccc(-c2ccc(C#N)cn2)cc1", "criterion not met"),
    ("CC(C)(C(=O)O)c1ccc(-c2ccc(C#N)cn2)cc1", "criterion not met"),
    ("CC(C)(C)c1ccc(-c2ccc(F)cn2)cc1", "criterion met"),
    ("CC(C)c1ccc(-c2ccc(C#N)cn2)cc1", "criterion met"),
]

----------
Let's look at some molecules and their measured clearance.
Assay: Clearance in Sprague-Dawley rat at <= 1 mg/kg, iv
Type: ADME, organism-based
Design: dose 1 mg/kg, route intravenous
Conditions: in vivo

# Given Smiles, Endpoint Unit, clearance
records = [
    ("O=C(Nc1ccc(C(F)(F)F)nc1)c1ccc(C2(C(F)(F)F)CC2)cc1", "mL/min/kg", 25),
    ("N#Cc1ccc(-c2ccc(C3(C(F)(F)F)CC3)cc2)nc1", "mL/min/kg", 4.6),
    ("CC(C)(C)c1ccc(C(=O)Nc2ccc(C(F)(F)F)nc2)cc1", "mL/min/kg", 352),
    ("CC(C)(C)c1ccc(-c2ccc(C#N)cn2)cc1", "mL/min/kg", 20),
    ("CC1(c2ccc(-c3ccc(C#N)cn3)cc2)COC1", "mL/min/kg", 28),
]
